# experiment: Plasma protein binding in human
# Assay type: ADME, cell-free
readoutLabel: fraction unbound

# compound O=C(NC[C@H](OCc1ccc(C#Cc2ccc(CN3CCOCC3)cc2)cc1)C(=O)NO)c1c[nH]c2ccccc12 ; its fraction unbound = < 0.03

====

# Test system: Escherichia coli
# experiment: Antibacterial activity against Escherichia coli D22 assessed as diameter of inhibition zone incubated for 20 hrs by disc diffusion assay
# Assay type: functional
readoutLabel: diameter of the inhibition zone (DIZ) (mm)
Your answer is read as mm, so omit the unit and give the number.

Solved cases below.
// compound O=C(NO)[C@@H](CO)OCc1ccc(C#Cc2ccc(CN3CCOCC3)cc2)cc1 , assay Escherichia coli, diameter of the inhibition zone (DIZ) value: 22

Assay Escherichia coli, sample O=C(COCc1ccc(C#Cc2ccc(CN3CCOCC3)cc2)cc1)NO , diameter of the inhibition zone (DIZ) read: 20.3

So the reported diameter of the inhibition zone (DIZ) for O=C(NO)[C@@H](OCc1ccc(C#Cc2ccc(CN3CCOCC3)cc2)cc1)[C@@H](O)COCc1ccccc1 , on Escherichia coli, turned out to be 19.5

Simply: O=C(NO)[C@H](OCc1ccc(C#Cc2ccc(CN3CCOCC3)cc2)cc1)[C@@H](O)COCc1ccccc1 , Escherichia coli, diameter of the inhibition zone (DIZ) = 13.3

Please look at the following compound next.
# lookup: O=C(NO)[C@H](CO)OCc1ccc(C#Cc2ccc(CN3CCOCC3)cc2)cc1 on Escherichia coli, diameter of the inhibition zone (DIZ) = 25.8
